# TEST_TARGET: T1, recombinant human IGF-II (Insulin-like Growth Factor II) (human, UniProt P01344 25-91, biotinylated (Biotinyl-IGF-II, GroPep) where immobilised in SPR, site not stated; not biotinylated in ITC and as SPR analyte)
# T1 construct: also called IGF2; IGF-2
# T1 sequence (P01344 25-91 limits assumed): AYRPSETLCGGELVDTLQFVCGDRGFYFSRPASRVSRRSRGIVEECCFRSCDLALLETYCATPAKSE
# ASSAY_COMMENT: SPR, IGF-II immobilised, kinetic fit
Please go through the items and note down their kon.
The reply should consist of the numeric value with the unit placed after it.

Given IGF2R domain 11 K1545A (amino acids 1511-1650, C-terminal His6 tag, from Pichia pastoris) (receptor) NEHDDCQVTNPSTGHLFDLSSLSGRAGFTAAYSEAGLVYMSICGENENCPPGVGACFGQTRISVGKANKRLRYVDQVLQLVYKDGSPCPSKSGLSYKSVISFVCRPEAGPTNRPMLISLDKQTCTLFFSWHTPLACEQATHHHHHH , state its recorded kon. 273000 M⁻¹ s⁻¹

Form field: reported kon of wild type IGF2R domain 11 (amino acids 1511-1650) with C-terminal His6 tag, from Pichia pastoris (receptor, also called WT; wild type domain 11) NEHDDCQVTNPSTGHLFDLSSLSGRAGFTAAYSEKGLVYMSICGENENCPPGVGACFGQTRISVGKANKRLRYVDQVLQLVYKDGSPCPSKSGLSYKSVISFVCRPEAGPTNRPMLISLDKQTCTLFFSWHTPLACEQATHHHHHH 525000 M⁻¹ s⁻¹

GET /values?readout=kon&item= IGF2R domain 11 E1544A (amino acids 1511-1650, C-terminal His6 tag, from Pichia pastoris) (receptor) NEHDDCQVTNPSTGHLFDLSSLSGRAGFTAAYSAKGLVYMSICGENENCPPGVGACFGQTRISVGKANKRLRYVDQVLQLVYKDGSPCPSKSGLSYKSVISFVCRPEAGPTNRPMLISLDKQTCTLFFSWHTPLACEQATHHHHHH 934000 M⁻¹ s⁻¹

GET /values?readout=kon&item= IGF2R domain 11 Y1542A (amino acids 1511-1650, C-terminal His6 tag, from Pichia pastoris) (receptor) NEHDDCQVTNPSTGHLFDLSSLSGRAGFTAAASEKGLVYMSICGENENCPPGVGACFGQTRISVGKANKRLRYVDQVLQLVYKDGSPCPSKSGLSYKSVISFVCRPEAGPTNRPMLISLDKQTCTLFFSWHTPLACEQATHHHHHH 265000 M⁻¹ s⁻¹

May I ask what kon has been recorded for IGF2R domain 11 Q1569A (amino acids 1511-1650, C-terminal His6 tag, from Pichia pastoris) (receptor) NEHDDCQVTNPSTGHLFDLSSLSGRAGFTAAYSEKGLVYMSICGENENCPPGVGACFGATRISVGKANKRLRYVDQVLQLVYKDGSPCPSKSGLSYKSVISFVCRPEAGPTNRPMLISLDKQTCTLFFSWHTPLACEQATHHHHHH ? 529000 M⁻¹ s⁻¹

Please look up its kon: IGF2R domain 11 S1543A (amino acids 1511-1650, C-terminal His6 tag, from Pichia pastoris) (receptor) NEHDDCQVTNPSTGHLFDLSSLSGRAGFTAAYAEKGLVYMSICGENENCPPGVGACFGQTRISVGKANKRLRYVDQVLQLVYKDGSPCPSKSGLSYKSVISFVCRPEAGPTNRPMLISLDKQTCTLFFSWHTPLACEQATHHHHHH 369000 M⁻¹ s⁻¹
